- studyTarget: CB1 receptors (Mus musculus)
- Construct: the complete brain (excluding the cerebellum) and the spleen were quickly dissected and kept in ice; from tissue; host or cells: mouse brain (excluding cerebellum), membrane preparation
- experimentDescription: biochemical
- Format: binding
- experimentalConditions: mouse brain membranes, 1 nM [3H]-CP55.940; read-out: CB1 (brain) Ki
- Experimental: The affinity of the synthesized compounds towards the CB1 and CB2 cannabinoidergic receptors was evaluated in vitro by radioreceptor binding studies using the method reported hereinunder. […] The thus obtained membranes (50-80 μg of proteins) were incubated in the presence of 1 nM of [^3H]-CP55.940 for 1 hour at 30° C. in a final volume of 0.5 ml of TME buffer containing 5 mg/ml of bovine serum albumin (BSA). The non specific binding was measured in the presence of CP55.940 at a 1 μM concentration. […]
testReadout: Ki

IN: I have this molecule here, CCOC(=O)c1nn(-c2ccc(S(N)(=O)=O)cc2)c2c1CCc1sccc1-2 , and I need its recorded Ki.
OUT: > 5 µM

IN: // Ki lookup, key: NC(=O)c1nn(-c2ccc(S(N)(=O)=O)cc2)c2c1CCc1sccc1-2
OUT: > 5 µM

###

- studyTarget: CB1 receptors (Mus musculus, UniProt P47746)
- Construct: the complete brain (excluding the cerebellum) and the spleen were quickly dissected and kept in ice; from tissue; host or cells: mouse brain (excluding cerebellum), membrane preparation
- Sequence (P47746 whole entry): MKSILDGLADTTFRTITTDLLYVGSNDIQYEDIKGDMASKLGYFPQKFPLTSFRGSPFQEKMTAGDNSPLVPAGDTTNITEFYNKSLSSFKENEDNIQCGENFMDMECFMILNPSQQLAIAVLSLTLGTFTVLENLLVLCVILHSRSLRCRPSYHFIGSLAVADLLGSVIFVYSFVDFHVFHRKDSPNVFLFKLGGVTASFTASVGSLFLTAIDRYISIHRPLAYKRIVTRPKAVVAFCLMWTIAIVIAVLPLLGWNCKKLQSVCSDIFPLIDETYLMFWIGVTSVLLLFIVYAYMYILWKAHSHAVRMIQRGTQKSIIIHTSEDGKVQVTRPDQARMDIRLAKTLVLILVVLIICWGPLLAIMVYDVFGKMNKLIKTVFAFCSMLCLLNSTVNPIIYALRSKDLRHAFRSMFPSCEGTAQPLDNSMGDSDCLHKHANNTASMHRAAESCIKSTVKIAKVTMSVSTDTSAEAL
- experimentDescription: biochemical
- Format: binding
testReadout: log10 Ki (log10 of the value in nM)
Recorded Ki (log10, nM)

IN: Need log10 Ki of CC1(C)C2CCC(CNC(=O)c3nn(-c4ccc(Cl)cc4Cl)c4c3CCc3sc(-c5ccccc5)cc3-4)C1C2 (stereo not drawn) , thanks.
OUT: 1.94

IN: // lookup log10 Ki for Cc1cc2c(s1)-c1c(c(C(=O)NCC3CCC4CC3C4(C)C)nn1-c1ccc(F)cc1F)C2 (stereo not drawn)
OUT: 1.35

IN: Record request: log10 Ki value, item Cc1cc2c(s1)-c1c(c(C(=O)NC3C4(C)CCC(C4)C3(C)C)nn1-c1ccc(Cl)cc1Cl)C2 (stereo not drawn)
OUT: 1.64

IN: # log10 Ki lookup, item Cc1cc2c(s1)-c1c(c(C(=O)NCC3CCC4CC3C4(C)C)nn1-c1ccc(Cl)cc1Cl)C2 (stereo not drawn)
OUT: 2.60

IN: What log10 Ki value was documented for this molecule, Cc1csc2c1Cc1c(C(=O)NCC3CCC4CC3C4(C)C)nn(-c3ccc(Cl)cc3Cl)c1-2 (stereo not drawn) ?
OUT: 2.96

IN: Sample Cc1cc2c(s1)-c1c(c(C(=O)CC3CCCCC3)nn1-c1ccc(Cl)cc1Cl)C2 — what was its log10 Ki?
OUT: 2.86

IN: Request the reported log10 Ki associated with Cc1ccc(Cn2nc(C(=O)NCC3CCC4CC3C4(C)C)c3c2-c2sc(C)cc2C3)cc1 (stereo not drawn)
OUT: 1.92

IN: What log10 Ki value was documented for this molecule, Cc1ccc(Cn2nc(C(=O)NC3CC(C)CCC3C(C)C)c3c2-c2sc(C)cc2C3)cc1 (stereo not drawn) ?
OUT: 1.52

IN: So what's the measured log10 Ki for this one? CC1(C)C2CCC(CNC(=O)c3nn(-c4ccc(F)cc4F)c4c3Cc3cc(Br)sc3-4)C1C2 (stereo not drawn)
OUT: 2.20

###

- Test system: old DBA/2J mice
- experimentDescription: Reduction of intraocular pressure (IOP) after application to the eye, TONOLab tonometer
- Assay type: in vivo
- experimentalConditions: 50 μg to the eye in Tocrisolve, 90 minutes, versus basal IOP
Would you please tag the item class 1 when its Intraocular Pressure Decrease is 0.5% or above, and class 0 when it is below?

IN: Textbook exercise: given the entry NC(=O)c1nn(-c2ccc(S(N)(=O)=O)cc2)c2c1CCc1sccc1-2 [Compound (XB)] , state whether its Intraocular Pressure Decrease is greater than or equal to 0.5%.
OUT: class 0

IN: // inclusive: Intraocular Pressure Decrease at least 0.5%? input: Cc1ccc(Cn2nc(C(=O)NCC3CCC4CC3C4(C)C)c3c2-c2sc(C)cc2C3)cc1 (stereo not drawn) [Example 3.1]
OUT: class 1

IN: Quick check: does CCOC(=O)c1nn(-c2ccc(S(N)(=O)=O)cc2)c2c1CCc1sccc1-2 [Compound (XA)] have Intraocular Pressure Decrease greater than or equal to 0.5%?
OUT: class 0

IN: Has Cc1ccc(Cn2nc(C(=O)NC3CC(C)CCC3C(C)C)c3c2-c2sc(C)cc2C3)cc1 (stereo not drawn) [Compound (XC)] a recorded Intraocular Pressure Decrease greater than or equal to 0.5%?
OUT: class 1

IN: Is Intraocular Pressure Decrease at least 0.5%? Consider Cc1c(C(=O)c2cccc3ccccc23)c2cccc3c2n1[C@H](CN1CCOCC1)CO3 [WIN 55212-2]
OUT: class 1
